Biological target: α-amylase (Homo sapiens, UniProt P04746)
Sequence (P04746 16-511): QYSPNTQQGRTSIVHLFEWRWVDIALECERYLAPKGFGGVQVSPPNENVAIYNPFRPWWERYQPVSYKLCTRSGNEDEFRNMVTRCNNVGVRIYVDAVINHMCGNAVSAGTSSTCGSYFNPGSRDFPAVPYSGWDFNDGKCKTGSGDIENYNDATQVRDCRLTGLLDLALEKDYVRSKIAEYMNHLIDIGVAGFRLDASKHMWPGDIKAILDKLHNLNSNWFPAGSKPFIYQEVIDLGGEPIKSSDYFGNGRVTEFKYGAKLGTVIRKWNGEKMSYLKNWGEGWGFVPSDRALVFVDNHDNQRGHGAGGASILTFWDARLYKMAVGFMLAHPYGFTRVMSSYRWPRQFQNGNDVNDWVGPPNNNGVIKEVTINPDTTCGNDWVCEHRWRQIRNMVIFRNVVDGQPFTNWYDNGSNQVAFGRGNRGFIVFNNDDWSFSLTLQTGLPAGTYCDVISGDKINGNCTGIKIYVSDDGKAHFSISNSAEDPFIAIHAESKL
pIC50: −log10 of the molar value.
test-readout: pIC50

1) CC(C)CCCCCOC(=O)c1ccccc1C(=O)OCCCCCC(C)C [HR5, bis (6-methylheptyl) phthalate] :: 4.93
